- subject-of-test: PLK3 (Homo sapiens)
- Sequence (Q9H4B4 whole entry): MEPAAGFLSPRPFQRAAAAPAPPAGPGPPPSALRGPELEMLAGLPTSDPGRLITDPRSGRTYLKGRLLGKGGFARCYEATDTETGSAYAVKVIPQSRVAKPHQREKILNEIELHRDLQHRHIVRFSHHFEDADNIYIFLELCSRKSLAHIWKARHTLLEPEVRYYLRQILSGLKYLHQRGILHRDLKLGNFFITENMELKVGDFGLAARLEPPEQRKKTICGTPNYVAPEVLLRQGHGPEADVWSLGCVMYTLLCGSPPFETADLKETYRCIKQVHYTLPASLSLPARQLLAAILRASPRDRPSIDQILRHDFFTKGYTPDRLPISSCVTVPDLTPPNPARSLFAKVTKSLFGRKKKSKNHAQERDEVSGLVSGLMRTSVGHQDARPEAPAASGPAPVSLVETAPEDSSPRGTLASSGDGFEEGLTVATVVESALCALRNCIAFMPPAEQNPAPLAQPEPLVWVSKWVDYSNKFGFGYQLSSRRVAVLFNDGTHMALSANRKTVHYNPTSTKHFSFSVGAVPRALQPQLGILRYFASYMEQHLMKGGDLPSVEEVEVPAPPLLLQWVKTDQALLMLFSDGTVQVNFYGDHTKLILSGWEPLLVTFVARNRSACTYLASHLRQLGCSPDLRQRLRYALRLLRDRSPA
value-type: IC50

Sure, the documented IC50 for COc1ccc2c(Oc3ccc4c(C(=O)Nc5ccccc5N)cccc4c3)ccnc2c1 [CS2164] is 100 to 500 nM

----------
- subject-of-test: PLK1 (Homo sapiens)
- Sequence (P53350 whole entry): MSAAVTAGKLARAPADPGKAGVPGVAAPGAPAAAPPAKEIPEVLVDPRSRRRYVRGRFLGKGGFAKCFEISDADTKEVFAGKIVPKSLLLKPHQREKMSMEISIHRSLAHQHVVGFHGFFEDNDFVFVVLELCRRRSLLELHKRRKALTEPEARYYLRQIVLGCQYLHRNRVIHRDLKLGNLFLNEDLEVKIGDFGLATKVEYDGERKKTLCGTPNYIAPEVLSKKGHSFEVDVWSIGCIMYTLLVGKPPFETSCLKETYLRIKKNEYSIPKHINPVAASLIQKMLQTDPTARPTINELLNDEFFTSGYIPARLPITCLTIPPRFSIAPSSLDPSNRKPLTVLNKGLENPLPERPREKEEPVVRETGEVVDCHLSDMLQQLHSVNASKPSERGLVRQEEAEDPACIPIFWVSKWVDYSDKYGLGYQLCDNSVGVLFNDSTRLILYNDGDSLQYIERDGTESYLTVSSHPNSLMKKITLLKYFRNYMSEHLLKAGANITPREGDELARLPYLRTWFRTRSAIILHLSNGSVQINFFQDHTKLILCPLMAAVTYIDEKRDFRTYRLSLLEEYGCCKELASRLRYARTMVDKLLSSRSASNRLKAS
value-type: IC50

PLK1 (Homo sapiens) data for COc1ccc2c(Oc3ccc4c(C(=O)Nc5ccccc5N)cccc4c3)ccnc2c1 ; its IC50: 100 to 500 nM

The values you see were collected from paper PMC5378272.
